Reference for the values: PubChem BioAssay AID1159580

# Test Name: chemical genetic growth profiling, strain panel (AID 1159580);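 note: tested at 20 µM; growth read once vehicle control cultures reached saturation at 30 °C; 1 = growth at the plate median or of vehicle wells; lower values mean less growth of the strain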
# Cond: S. cerevisiae deletion strains, growth OD, locus YEL037C, strain rad23, active compounds read low
The whole screen tested about 5,500 compounds, of which about 2,000 (36%) were called active. About 18% were inconclusive and are not listed. This is one part of the list.
Outcome Measure: normalized growth

Example entries begin here.
1. O=C(CCc1ccc(O)cc1)c1c(O)cc(O)cc1O ... 1 (inactive)
2. COc1ccc(CC(=O)c2ccc(O)cc2O)cc1 ... 0.997 (inactive)
3. CO/N=C(/C(=O)NC1C(=O)N2C(C(=O)OCOC(=O)C(C)(C)C)=C(/C=C\c3scnc3C)CSC12)c1csc(N)n1 (centres undefined) ... 0.988 (inactive)
4. ClC1C(Cl)C(Cl)C(Cl)C(Cl)C1Cl (centres undefined) ... 0.973 (inactive)

Query block: For the compound CC(=O)Oc1c(C)c(C)c2c(c1C)CCC(C)(CCCC(C)CCCC(C)CCCC(C)C)O2 (centres undefined) , report normalized growth.
Result block: 0.985 (inactive)

Query block: Please report normalized growth for the following compound: COc1cc(O)ccc1C(C)=O
Result block: 1.02 (inactive)

Query block: Identify normalized growth associated with the compound Cn1c(=O)[nH]c2ncn(C)c2c1=O
Result block: 0.968 (inactive)

Query block: Tell me normalized growth reported for Cn1c(=O)[nH]c2nc[nH]c2c1=O
Result block: 0.992 (inactive)

Query block: Tell us which normalized growth value is on record for CCC1(C2=NCCN2)Cc2ccccc2O1 (centres undefined)
Result block: 1.01 (inactive)

====

Form field: normalized growth (one value per entry).
# Test Name: chemical genetic growth profiling, strain panel (AID 1159580);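 note: tested at 20 µM; growth read once vehicle control cultures reached saturation at 30 °C; 1 = growth at the plate median or of vehicle wells; lower values mean less growth of the strain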
# Cond: S. cerevisiae deletion strains, growth OD, locus YAL021C, strain ccr4, active compounds read low
Screen size: about 5,500 compounds; about 2,000 (36%) were called active. Not shown: some 18% with an inconclusive outcome. This is one part of the list.
Enter a number only.

Known normalized growth results, listed for orientation:
1. O=C(CCc1ccc(O)cc1)c1c(O)cc(O)cc1O ... 0.998
2. C[C@H]1C(=O)CCC2[C@]3(C)CC[C@@]4(C)C5CC(C)(C)CC[C@]5(C)CC[C@]4(C)C3CC[C@@]21C (stereo not given in full) ... 0.979
3. COc1cc(O)ccc1C(C)=O ... 1.02
4. CO/N=C(/C(=O)NC1C(=O)N2C(C(=O)OCOC(=O)C(C)(C)C)=C(/C=C\c3scnc3C)CSC12)c1csc(N)n1 (stereo not given) ... 0.974

Query block: Query normalized growth for COc1ccc(CC(=O)c2ccc(O)cc2O)cc1
Result block: 0.998

====

# Test Name: chemical genetic growth profiling, strain panel (AID 1159580);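 note: tested at 20 µM; growth read once vehicle control cultures reached saturation at 30 °C; 1 = growth at the plate median or of vehicle wells; lower values mean less growth of the strain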
# Cond: S. cerevisiae deletion strains, growth OD, locus YNL298W, strain CLA4 (second series), active compounds read low
Out of some 5,500 compounds screened, about 2,000 (36%) were called active. Another 18% or so got no clear call; they are omitted. The list shows a part of the results.
Recorded normalized growth for the following compounds
I'd appreciate a reply containing only the number, no unit.

1) O=C(NNC(=S)NC1CC2C=CC1C2)c1cccnc1 (configuration not stated) ... 0.958
2) O=C(Nc1cc(-c2ccccc2)[nH]n1)c1ccccc1 ... 0.844
3) COc1cccc(C2SCc3cc(C)c(C)cc3CS2)c1O ... 0.986
4) CC(C)(C)c1cc(C(=O)NN)n[nH]1 ... 1.01
5) Nc1ccc(Sc2cc(Cl)ccc2Cl)nc1 ... 0.781

Query block: Specify reported normalized growth for the compound shown: O=C(CSCc1c(Cl)cccc1Cl)NNC(=S)NC1CC2C=CC1C2 (configuration not stated)
Result block: 0.658

Query block: Supply reported normalized growth belonging to this compound: Cc1c(-c2csc(-c3ccc(Cl)cc3)n2)sc2ccc(Cl)cc12
Result block: 1.09

Query block: Identify measured normalized growth associated with NC(=O)C1=C(O)C(=O)N(C2CCCCC2)C1
Result block: 1.02

Query block: Please indicate normalized growth recorded for O=C(O)c1ccccc1Sc1c(C(=O)O)cc([N+](=O)[O-])cc1[N+](=O)[O-]
Result block: 0.964

Query block: Please indicate normalized growth recorded for COc1cc(C2Nc3cccc4cccc(c34)N2)cc(OC)c1OC
Result block: 0.877

Query block: Could you please provide reported normalized growth for CC(=O)OCCCCN1C(=O)c2ccccc2C1=O ? Thanks!
Result block: 0.983

Query block: Read the entry Cc1c(C)c(C)c(S(=O)(=O)Nc2ccccc2N)c(C)c1C and write its reported normalized growth.
Result block: 0.982
